# MEASUREMENT_TARGET: T1, TNFR1 (Homo sapiens, UniProt P19438)
# T1 chain: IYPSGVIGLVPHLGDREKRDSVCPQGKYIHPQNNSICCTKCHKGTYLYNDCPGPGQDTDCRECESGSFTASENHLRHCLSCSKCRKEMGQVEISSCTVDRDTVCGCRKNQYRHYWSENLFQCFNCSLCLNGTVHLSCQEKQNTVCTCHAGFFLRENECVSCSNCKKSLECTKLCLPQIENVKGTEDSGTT
# PROTOCOL_NOTES: yeast display SC50
PROPERTY_MEASURED: apparent Kd (screen) (nM)

Solved cases (5 shown):
BINDER	READOUT_UNITS	apparent Kd (screen)
A83V (designed binder) MTLQELLREEALRRAEAEAFRYALELLAEKFPEQKEYLLDLAEEIESQIRSLSGVDVEDVRKFLDKEWAWVKELLAEHPAELVEVEAARAARLAELRAEVEAKVAA	nM	0.718
E95G (designed binder) MTLQELLREEALRRAEAEAFRYALELLAEKFPEQKEYLLDLAEEIESQIRSLSGVDVEDVRKFLDKEWAWVKELLAEHPAELAEVEAARAARLAGLRAEVEAKVAA	nM	0.653
D56M (designed binder) MTLQELLREEALRRAEAEAFRYALELLAEKFPEQKEYLLDLAEEIESQIRSLSGVMVEDVRKFLDKEWAWVKELLAEHPAELAEVEAARAARLAELRAEVEAKVAA	nM	0.956
S53E (designed binder) MTLQELLREEALRRAEAEAFRYALELLAEKFPEQKEYLLDLAEEIESQIRSLEGVDVEDVRKFLDKEWAWVKELLAEHPAELAEVEAARAARLAELRAEVEAKVAA	nM	2.25
L75N (designed binder) MTLQELLREEALRRAEAEAFRYALELLAEKFPEQKEYLLDLAEEIESQIRSLSGVDVEDVRKFLDKEWAWVKELNAEHPAELAEVEAARAARLAELRAEVEAKVAA	nM	0.593

(P) A106K (designed binder) MTLQELLREEALRRAEAEAFRYALELLAEKFPEQKEYLLDLAEEIESQIRSLSGVDVEDVRKFLDKEWAWVKELLAEHPAELAEVEAARAARLAELRAEVEAKVAK
(Q) E73F (designed binder) MTLQELLREEALRRAEAEAFRYALELLAEKFPEQKEYLLDLAEEIESQIRSLSGVDVEDVRKFLDKEWAWVKFLLAEHPAELAEVEAARAARLAELRAEVEAKVAA
Incoming: Higher apparent Kd (screen) between P and Q ? Write down the label of the entry you select.
Outgoing: P
